Tested on: 786-0
assay_summary: NCI tumour cell line growth inhibition, 48 h
The source made the active and inactive calls. Rule as the data show it: active = GI50 up to about 1.1 µM and inactive = higher.
Permitted responses: active, inactive

Completed entries (count: 5):
CCCCn1/c(=N/C(=S)N(C)C)ss/c1=N\C(=S)N(C)C
inactive
O=C(c1ccccc1)n1c2ccc(Br)cc2c2nc3ccccc3nc21
inactive
CON(C)C(=O)[C@H]1C[C@@]1(C)CO
inactive
CC1=C2C(=O)NN=C2CCN1c1ccc(Br)cc1
inactive
c1ccc(/C(=N/Nc2nc3ccccc3s2)C2CCCCC2)nc1
inactive

Task item: Entry O=c1[nH]nc(-c2ccccc2)n1/N=C\c1ccccc1 : call = ?
Reply: inactive

Task item: Entry CCC1(N=[N+]=[N-])C(=O)c2ccccc2N(C)C1=O (stereo not drawn) : call = ?
Reply: inactive

Task item: Entry CCOC(=O)C(=O)C(=O)NN(C)C1=NCCN1 : call = ?
Reply: inactive

* * *

Tested on: MDA-MB-435
assay_summary: NCI tumour cell line growth inhibition, 48 h
Calls of active or inactive are those of the source. No stated cut-off is given here; in the data, active = GI50 up to about 1.1 µM and inactive = higher.
For each entry below, report its GI50 value.

# annotated cases, reported GI50 shown
CN1C(c2ccccc2)CC(=NOCc2ccccc2)CC1c1ccccc1 (stereo unspecified)
16.9 µM (inactive)
COC(=O)c1ccc(CCc2cc(O)c(Br)cc2O)cc1
8.49 µM (inactive)
O=C1C=C(Br)c2c(Br)sc(Br)c21
10 µM (inactive)

Okay, here is my list. What is GI50 for each of these?
1. COc1cc2c(cc1OC)CN1CCc3ccccc3CC1C2 (stereo unspecified)
2. O=C(O)Cc1cc(Cl)ccc1O
3. Cn1c2ccccc2c(=NNc2ccccc2C(=O)O)c2ccccc21
4. Nc1nc(Cl)nc2c1ncn2C1CCC(CO)O1 (stereo unspecified)
5. COc1cccc2c1C(=O)c1c(O)c3c(c(O)c1C2=O)CC(O)(C(C)=O)CC3OC1OC(COC(C)=O)C(OC(C)=O)C(OC(C)=O)C1OC(C)=O (stereo unspecified)

Reply:
86.5 µM (inactive)
> 100 µM (inactive)
20 µM (inactive)
> 100 µM (inactive)
88.7 µM (inactive)

Okay, here is my list. What is GI50 for each of these?
1. O=C(/C=C(\N=P(c1ccccc1)(c1ccccc1)c1ccccc1)C(F)(F)C(F)(F)C(F)(F)C(F)(F)C(F)(F)C(F)(F)C(F)(F)F)c1ccccc1
2. O=C(c1cccs1)N(C(=S)OCCOc1ccccc1)c1ccccc1

Reply:
1: > 100 µM (inactive); 2: 17 µM (inactive)

* * *

For each entry below, report its GI50 value.
Test system: OVCAR-5
assay_summary: NCI tumour cell line growth inhibition, 48 h
The source made the active and inactive calls. Rule as the data show it: active = GI50 up to about 1.1 µM and inactive = higher.

# annotated cases, reported GI50 shown
Cn1c2ccccc2c(=NNc2ccccc2C(=O)O)c2ccccc21
30.3 µM (inactive)
O=C(/C=C/c1ccc(Cl)c(Cl)c1)c1ccccc1Cl
16.8 µM (inactive)
O=S(=O)(O)C(O)/C=C/c1ccccc1 (stereo unspecified)
> 100 µM (inactive)
C#CCN(Cc1ccc2nc(-c3ccccc3)c(N)nc2c1)c1cc(OC)c(OC)c(OC)c1
48.5 µM (inactive)
Fc1cccc(F)c1C1SCc2nc3cc4ccccc4cc3n21 (stereo unspecified)
64 µM (inactive)

Okay, here is my list. What is GI50 for each of these?
1. COc1cccc(/C=C(\NC(C)=O)c2nc3cc(Cl)ccc3[nH]2)c1
2. CCCCNC(=S)N/C=C1\C(=O)Nc2ccccc2C1=O
3. CC1=C(/C=C/C2=CC(=C\C(=O)O)/CC(C3=C(C)CCCC3(C)C)C2)C(C)(C)CCC1 (stereo unspecified)

Reply:
1: > 100 µM (inactive); 2: > 10 µM (inactive); 3: 16.4 µM (inactive)

Okay, here is my list. What is GI50 for each of these?
1. CCC1(N=[N+]=[N-])C(=O)c2ccccc2N(C)C1=O (stereo unspecified)
2. C#Cc1cccc(NC(=O)/C=C\C(=O)O)c1

Reply:
1: > 100 µM (inactive); 2: > 100 µM (inactive)

Task item: Find the recorded GI50 belonging to OC1CN2Cc3cc4c(cc3[C@]13C=C[C@@H](O)CC23)OCO4 (stereo partly specified) and report it.
Reply: 23.9 µM (inactive)
